# Target: phosphorylation levels of ERK1/2 in AsPC-1 (homozygous KRAS-G12D) cells (Homo sapiens, UniProt P01116, G12D)
# Sequence (P01116 1-186 G12D): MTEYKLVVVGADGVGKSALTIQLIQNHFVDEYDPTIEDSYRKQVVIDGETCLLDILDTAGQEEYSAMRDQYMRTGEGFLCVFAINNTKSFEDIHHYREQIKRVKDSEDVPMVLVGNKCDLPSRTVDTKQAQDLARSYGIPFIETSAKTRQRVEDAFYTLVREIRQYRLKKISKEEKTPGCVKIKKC
# Assay Method Text: Cellular phospho-ERK assay in AsPC-1 cells (Alpha Screen), assay medium without fetal bovine serum;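 also: signal taken as phospho-ERK over total ERK per well, both detected in one multiplex bead assay, EC50 from four-parameter logistic fit of dose-response curves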
# Measurement Context: phospho-ERK AlphaScreen, 18 h
pEC50: −log10 of the molar value. *1 amine or outer side, *2 acyl side, *3 side chain or, on linkers, in order; H or OH if unused. Where a SMILES comes first, the peptide text is derived from it. Bridges are numbered along the chain shown (N, C = ends). [ ]: non-standard residue; d: D form. Phe(4-guanidino) = N=C(N)Nc1ccc(C[C@H](N)C(=O)O)cc1; Lys(N3) = [N-]=[N+]=NCCCC[C@H](N)C(=O)O; X21 = O=C([C@@H]1C[C@H]1CN[*:1])[*:2]; X1 = O=C(C12CC(CN[*:1])(C1)C2)[*:2]; NMeLys(Me) = CNCCCC[C@H](NC)C(=O)O; NMeR = CN[C@@H](CCCNC(=N)N)C(=O)O; NMeF = CN[C@@H](Cc1ccccc1)C(=O)O; PhLac = O=C(O)[C@@H](O)Cc1ccccc1; 3Pal = N[C@@H](Cc1cccnc1)C(=O)O; Ahp(2) = CCCCC[C@H](N)C(=O)O; Cba = N[C@@H](CC1CCC1)C(=O)O; αMeC = C[C@](N)(CS)C(=O)O; Nle = CCCC[C@H](N)C(=O)O
Items are presented alongside their recorded pEC50.

Past entries and their recorded results:
1) CCCC[C@@H]1NC(=O)[C@H](Cc2cccnc2)NC(=O)[C@H](CCCNC(=N)N)N(C)C(=O)[C@H](Cc2ccccc2)NC(=O)[C@@H]2C[C@H]2CNC(=O)[C@H](Cc2ccccc2)N(C)C(=O)[C@H](CCCCN=[N+]=[N-])NC(=O)[C@H](Cc2ccc(OC)cc2)NC1=O [compound 94] (cyclo(F[NMeR][3Pal][Nle]Y(Me)[Lys(N3)][NMeF][X21])) : < 4.29
2) CCCCC[C@@H]1NC(=O)[C@H](Cc2ccc(OC)cc2)NC(=O)[C@H](CC2CCC2)NC(=O)[C@H](Cc2cccnc2)NC(=O)[C@H](CCCNC(=N)N)NC(=O)[C@H](Cc2ccccc2)OC(=O)C23CC(CNC(=O)[C@H](Cc4ccccc4)N(C)C1=O)(C2)C3 [compound 211] (cyclo([PhLac]R[3Pal][Cba]Y(Me)[Ahp(2)][NMeF][X1])) : < 4.29

Okay, now this compound:
Give the reported value of pEC50 for this record: CCCCC[C@@H]1NC(=O)[C@H](Cc2ccc(OC)cc2)NC(=O)[C@H](CC2CCC2)NC(=O)[C@H](Cc2ccc(NC(=N)N)cc2)NC(=O)[C@H](CCCCNC)N(C)C(=O)[C@H](Cc2ccccc2)NC(=O)CSC[C@@](C)(C(N)=O)NC(=O)[C@H](Cc2ccccc2)N(C)C1=O [compound 360] ({CH2CO}-F[NMeLys(Me)][Phe(4-guanidino)][Cba]Y(Me)[Ahp(2)][NMeF][αMeC]-NH2; thioether N-8)
< 4.29
